# credit: the supplement of paper PMC10065799

- assayed_system: FGFR3 (UniProt P22607)
- Sequence (P22607 whole entry, looked up): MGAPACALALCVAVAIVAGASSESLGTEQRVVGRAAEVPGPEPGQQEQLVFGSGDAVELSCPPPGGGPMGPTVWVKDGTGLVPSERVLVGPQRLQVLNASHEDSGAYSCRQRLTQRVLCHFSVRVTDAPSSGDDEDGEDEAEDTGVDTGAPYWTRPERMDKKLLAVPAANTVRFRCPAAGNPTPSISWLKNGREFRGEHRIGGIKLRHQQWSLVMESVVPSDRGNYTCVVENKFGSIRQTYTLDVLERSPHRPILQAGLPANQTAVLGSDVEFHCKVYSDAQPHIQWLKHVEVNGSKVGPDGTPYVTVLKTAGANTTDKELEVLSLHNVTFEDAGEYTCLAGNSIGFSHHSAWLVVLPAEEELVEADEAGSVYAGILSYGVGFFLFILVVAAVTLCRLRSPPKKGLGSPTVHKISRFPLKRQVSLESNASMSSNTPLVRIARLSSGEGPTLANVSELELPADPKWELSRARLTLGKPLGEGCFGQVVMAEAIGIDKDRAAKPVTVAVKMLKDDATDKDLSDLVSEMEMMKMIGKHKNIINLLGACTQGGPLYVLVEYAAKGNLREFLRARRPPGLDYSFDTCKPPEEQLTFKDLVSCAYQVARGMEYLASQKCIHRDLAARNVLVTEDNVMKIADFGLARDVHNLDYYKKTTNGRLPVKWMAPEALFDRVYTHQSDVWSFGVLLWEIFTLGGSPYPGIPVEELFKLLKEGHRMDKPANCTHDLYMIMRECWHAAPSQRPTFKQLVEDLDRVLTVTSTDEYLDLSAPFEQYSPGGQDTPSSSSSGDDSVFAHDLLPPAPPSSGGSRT
- experimental_details: phosphorylation enrichment, bacterial display (enrichment ratio); higher = better substrate or ligand; peptides without Tyr show the background;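 further: 11-residue human phosphosite peptides and single-mutation variants displayed on the E. coli surface, counted by deep sequencing, each peptide's frequency after selection divided by its frequency in the unselected input library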;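 further: frequency after pTyr selection over input frequency; kinase dosed for 20-30% of maximal phosphorylation in three min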
Returns rule met if the recorded phosphorylation enrichment is greater than or equal to 0.6, and rule not met otherwise.

Here's what some known entries look like.
PAIFTYDEFKK [COL8A2_Y648_T645I_YF]    rule not met
LLVVLYKFRCF [PSEN1_Y154_Y159F_YF]    rule met
EFHRLYEEFTR [PIK3R1_Y467_D464H_YF]    rule not met
KCLAVYQAGAR [APOE_Y180_R176C]    rule not met
DHLASYLDKVR [KRT10_Y160_R156H]    rule not met
RESVSYLFSHV [PRPS1_Y311_G306R]    rule met
TAGFIYEKWEI [TEC_Y360_S359I]    rule met
WDLTDYLMKIL [ACTB_Y188_R183W]    rule met

**Query** Please tell me: is the sequence KLADMYGGGED [CDH1_Y876] at or over 0.6 in terms of phosphorylation enrichment?
**Result** rule not met

**Query** How about this sequence: HHIDFYKKTTN [FGFR1_Y654_YF]
**Result** rule not met

**Query** How about this sequence: EKKKFYDAKIE [CASP5_Y104_T106A_YF]
**Result** rule not met

**Query** How about this sequence: HAVYVYDICHV [TWNK_Y508]
**Result** rule met

**Query** How about this sequence: GARGRYVMGGP [TNK1_Y277]
**Result** rule not met

**Query** How about this sequence: GEEIKYMLWLL [OTC_Y55_S60L]
**Result** rule met

**Query** How about this sequence: GDPTEYFSTAI [IGSF22_Y501_YF]
**Result** rule met

**Query** How about this sequence: PGVNYYFRVSA
**Result** rule met
